- TARGET_ENTITY: T1, human DLL3 (ACRO, DLL3-H52H4) (human, UniProt Q9NYJ7 27-479)
- T1 construct: bought antigen of the Biacore assay; construct not described
- T1 sequence (looked up): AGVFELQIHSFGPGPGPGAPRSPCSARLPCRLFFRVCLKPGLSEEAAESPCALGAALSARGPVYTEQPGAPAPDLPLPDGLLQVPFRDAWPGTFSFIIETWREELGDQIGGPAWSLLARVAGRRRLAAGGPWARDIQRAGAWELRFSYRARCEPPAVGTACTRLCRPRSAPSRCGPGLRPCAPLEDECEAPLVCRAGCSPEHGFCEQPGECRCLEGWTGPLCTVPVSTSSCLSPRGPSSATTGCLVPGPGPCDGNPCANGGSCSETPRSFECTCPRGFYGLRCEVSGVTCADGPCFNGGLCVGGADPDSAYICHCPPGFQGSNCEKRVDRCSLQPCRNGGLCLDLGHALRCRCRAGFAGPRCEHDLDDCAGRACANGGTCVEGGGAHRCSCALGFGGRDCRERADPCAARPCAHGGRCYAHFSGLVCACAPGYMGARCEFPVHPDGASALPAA
- TEST_DESCRIPTION: SPR (Biacore 8K), antibody captured on Protein A chip, 1:1 fit
Items are presented alongside their recorded koff.
MEASUREMENT_TYPE: koff (s⁻¹)

[[record]]
binder = "hAb100L2H3 (antibody, human IgG1, kappa, V domains shown) VH: EVQLVESGGGLVKPGGSLRLSCAASGFTFSDSGMHWIRQAPGKGLEWVAYISSGSSTIHYADTVKGRFTISRDNAKNSLYLQMNSLRAEDTAVYYCASPLYHYGRSYNAVAYWGQGTTVTVSS VL: DIQMTQSPSSLSASVGDRVTITCHASQNINVWLSWYQQKPGKIPKLLIYKASDLHTGVPSRFSGSGSGTDFTLTISSLQPEDVATYYCQQGQSYPLTFGGGTKVEIKR"
value_measured = 0.000268

[[record]]
binder = "hAb100L1H2 (antibody, human IgG1, kappa, V domains shown) VH: EVQLVESGGGLVKPGGSLRLSCAASGFTFSDSGMHWIRQAPGKGLEWVAYISSGSSTIHYADTVKGRFTISRDNAKNSLYLQMNSLRAEDTAVYYCASPLYYYGRSYNAVAYWGQGTTVTVSS VL: DIQMTQSPSSLSASVGDRVTITCHASQNINVWLSWYQQKPGKVPKLLIYKASDLHTGVPSRFSGSGSGTDFTLTISSLQPEDVATYYCQQGQSYPLTFGGGTKVEIKR"
value_measured = 0.000365

[[record]]
binder = "Hu100 (antibody, human IgG1, kappa, V domains shown, also called hAb100L1H1) VH: EVQLVESGGGLVKPGGSLRLSCAASGFTFSDSGMHWIRQAPGKGLEWVSYISSGSSTIHYADTVKGRFTISRDNAKNSLYLQMNSLRAEDTAVYYCASPLYYYGRSYNAVAYWGQGTTVTVSS VL: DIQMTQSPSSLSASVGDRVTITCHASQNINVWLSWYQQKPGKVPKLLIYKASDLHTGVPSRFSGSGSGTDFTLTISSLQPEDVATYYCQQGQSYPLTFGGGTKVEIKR"
value_measured = 0.000374

